Test target: Nuclear receptor subfamily 1 group D member 1 (Homo sapiens)
Measurement protocol: modulators of Rev-erb alpha DNA binding, primary screen, biochemical, FITC-DNA, fluorescence polarization, uHTS (AID 1259318);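 also: 0% = DMSO wells with 35 nM protein and 100% = DMSO wells with 750 nM protein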
Test context: Rev-erbα–FITC-DNA binding, 90 min, at 10 µM, stronger effect = higher value
The whole screen tested about 370,000 compounds, of which about 3,000 (0.81%) were called active. The full list was thinned out, with actives kept by preference.
Measured activity of individual entries
The response must be a number in % with no trailing unit.

Compound	activity / %
CC(=O)c1c(C)[nH]c(C(=O)OCC(=O)NCCC(C)C)c1C	4.11

State, in one line, measured activity of CCCN(CCC)CCCNC(=O)CNC(=O)c1nn(-c2ccc(OC)cc2)c(=O)c2ccccc12 2.42

State, in one line, measured activity of CCCCCCNC(=O)CSc1nccn1Cc1ccccc1 1.93

State, in one line, measured activity of CC(C)CC(=O)Nc1cc(C(F)(F)F)ccc1N1CCOCC1 -4.25

State, in one line, measured activity of FCOC(C(F)(F)F)C(F)(F)F 2.75

State, in one line, measured activity of COc1ccc(CNC(=O)c2nnn(CC(=O)Nc3cc(C)cc(C)c3)c2N)cc1 33.3

State, in one line, measured activity of COc1ccc(-n2c(SCC(=O)Nc3ccccc3-c3ccccc3)nnc2-c2cccnc2)cc1 -5.08

State, in one line, measured activity of COC(=O)Cn1c(=NC(=O)CSCC(=O)Nc2cc(C)on2)sc2ccccc21 3.13

State, in one line, measured activity of COc1ccc(N(CC(=O)NCc2ccc(F)cc2)C(=O)CCC(=O)Nc2nccs2)cc1 -2.56

State, in one line, measured activity of CCOc1nc(-c2ccc(OC)cc2)ccc1-c1noc(-c2cc(OC)c(OC)c(OC)c2)n1 26.3

State, in one line, measured activity of Cc1ccc(CS(=O)(=O)CCC(=O)NCc2ccc(F)cc2)cc1 -2.15

State, in one line, measured activity of Cc1c(C=O)c2ccccn2c1C(=O)c1ccncc1 -1.4

* * *

Test target: Nuclear receptor subfamily 1 group D member 1 (Homo sapiens) (UniProt P20393)
Sequence (P20393 whole entry, looked up): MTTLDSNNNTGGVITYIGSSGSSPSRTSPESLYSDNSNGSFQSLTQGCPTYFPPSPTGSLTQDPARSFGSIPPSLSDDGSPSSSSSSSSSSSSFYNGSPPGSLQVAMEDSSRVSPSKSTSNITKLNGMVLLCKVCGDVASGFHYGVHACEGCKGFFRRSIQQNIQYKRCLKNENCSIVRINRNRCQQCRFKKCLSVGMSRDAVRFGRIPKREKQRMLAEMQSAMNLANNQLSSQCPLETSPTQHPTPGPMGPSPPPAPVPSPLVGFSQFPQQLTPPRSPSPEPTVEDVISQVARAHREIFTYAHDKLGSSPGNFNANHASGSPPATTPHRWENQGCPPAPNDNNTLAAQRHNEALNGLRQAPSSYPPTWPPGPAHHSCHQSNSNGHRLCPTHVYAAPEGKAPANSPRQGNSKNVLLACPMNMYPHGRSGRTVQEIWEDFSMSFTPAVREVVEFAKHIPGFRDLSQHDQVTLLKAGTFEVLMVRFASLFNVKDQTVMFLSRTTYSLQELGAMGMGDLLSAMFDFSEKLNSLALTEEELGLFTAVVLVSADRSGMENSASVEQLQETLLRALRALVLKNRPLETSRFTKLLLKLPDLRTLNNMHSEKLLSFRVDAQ
Measurement protocol: modulators of Rev-erb alpha DNA binding, primary screen, biochemical, FITC-DNA, fluorescence polarization, uHTS (AID 1259318);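 also: 0% = DMSO wells with 35 nM protein and 100% = DMSO wells with 750 nM protein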
Test context: Rev-erbα–FITC-DNA binding, 90 min, at 10 µM
Out of some 370,000 compounds screened, about 3,000 (0.81%) were called active.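 The calls were made as follows: active = activity above about 14% (limit read from the data; passing the limit was not always enough); inactive = the rest.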 The list comes from a sample in which actives are over-represented; it also holds close analogues and randomly drawn compounds.
Pick from YES (active), NO (inactive) when you respond.

Previously resolved entries follow.
Compound	Qualitative label
Cc1cc(=O)oc2c(C(=O)c3ccccc3)c(OCC(N)=O)ccc12	NO
CCN(CC)C(=O)CSc1nnc(-c2cnccn2)n1-c1ccc(C)cc1	NO
COc1ccccc1NC(=O)COc1ccc(C(=O)OCC(=O)N(C(C)C)C(C)C)cc1OC	NO
COc1ccc(-c2csc3ncnc(Oc4ccc5c(C)cc(=O)oc5c4)c23)cc1	NO

# fetch the recorded call for N#Cc1ccc(C(=O)OCC(=O)NC(=O)NC2CCCCC2)cc1 here NO

# fetch the recorded call for COCCOC(=O)c1c(C)oc2cc(Br)c(OCC(N)=O)cc12 here NO

# fetch the recorded call for CCOC(=O)c1c(C)oc2cc(Br)c(OCC(N)=O)cc12 here YES

# fetch the recorded call for O=C(CCn1c(SCC(=O)c2ccccc2)nc2ccccc2c1=O)NCc1ccc(F)cc1 here YES

# fetch the recorded call for COc1ccc(S(=O)(=O)N2CCN(c3cnccn3)CC2)cc1 here NO

# fetch the recorded call for O=C(COC(=O)c1cc([N+](=O)[O-])ccc1NCc1ccccc1)NC1CCCCC1 here NO

# fetch the recorded call for COc1ccc(-c2ccc3nnc(SCC(=O)Nc4ccc(NC(C)=O)cc4)n3n2)cc1 here NO

# fetch the recorded call for COc1ccc(CC(=O)Nc2ccc(-c3nnc(-c4ccc(C)cc4)o3)cc2)cc1 here YES

# fetch the recorded call for O=S(=O)(c1ccccc1)N1CCC(c2nc3ccccc3o2)CC1 here NO

# fetch the recorded call for Cc1cc(C(=O)OCC(=O)Nc2ccc(F)c(F)c2)c(C)o1 here NO

# fetch the recorded call for CCOC(=O)NC(=O)CSc1nnc(SCCC(=O)O)s1 here NO

* * *

Measured activity of individual entries
Test target: Nuclear receptor subfamily 1 group D member 1 (Homo sapiens) (UniProt P20393)
Measurement protocol: modulators of Rev-erb alpha DNA binding, primary screen, biochemical, FITC-DNA, fluorescence polarization, uHTS (AID 1259318);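 also: 0% = DMSO wells with 35 nM protein and 100% = DMSO wells with 750 nM protein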
Test context: Rev-erbα–FITC-DNA binding, 90 min, at 10 µM, stronger effect = higher value
The whole screen tested about 370,000 compounds, of which about 3,000 (0.81%) were called active. The full list was thinned out, with actives kept by preference.
The response must be a number in % with no trailing unit.

Compound	Test target	Measured metric	Readout number
CC(=O)C1(C)N(O)C(C)(C)C(c2cccs2)=[N+]1[O-] (stereo unspecified)	Nuclear receptor subfamily 1 group D member 1 (Homo sapiens) (UniProt P20393)	activity	-3.38
COc1ccc(-c2nnc3n2CCCCC3)cc1	Nuclear receptor subfamily 1 group D member 1 (Homo sapiens) (UniProt P20393)	activity	-6.25
CC(C)(C)c1ccc(C(=O)Nc2cc(Cl)c(Br)cc2C(=O)O)cc1	Nuclear receptor subfamily 1 group D member 1 (Homo sapiens) (UniProt P20393)	activity	-8.64
CCOC(=O)c1ccc(NC(=O)CCn2c(=O)oc3ccccc32)cc1	Nuclear receptor subfamily 1 group D member 1 (Homo sapiens) (UniProt P20393)	activity	-4.86
CCCCCC1CC(COc2ccccc2)OC1=O (stereo unspecified)	Nuclear receptor subfamily 1 group D member 1 (Homo sapiens) (UniProt P20393)	activity	3.77

State, in one line, measured activity of O=S(=O)(c1ccc(Br)cc1)c1nc(-c2ccccc2)oc1NCc1cccnc1 27.6

State, in one line, measured activity of CN(CCc1ccccn1)S(=O)(=O)c1ccc2c3c(cccc13)C(=O)N2 1.1

State, in one line, measured activity of CCOc1ccc(-n2c(SCC(=O)Nc3cc(C)c(NC(=O)c4ccccc4)cc3OC)nnc2-c2cccc(Cl)c2)cc1 -3.54

* * *

Test target: Nuclear receptor subfamily 1 group D member 1 (Homo sapiens) (UniProt P20393)
Measurement protocol: modulators of Rev-erb alpha DNA binding, primary screen, biochemical, FITC-DNA, fluorescence polarization, uHTS (AID 1259318);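 also: 0% = DMSO wells with 35 nM protein and 100% = DMSO wells with 750 nM protein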
Test context: Rev-erbα–FITC-DNA binding, 90 min, at 10 µM, stronger effect = higher value
Among all 370,000 compounds or so, about 3,000 (0.81%) were called active. Shown is part of a subset that was picked to be rich in actives.
Measured activity of individual entries
The response must be a number in % with no trailing unit.

The examples below pair each entry with its known result.
Compound	Measured metric	Unit info	Readout number
CCOC(=O)c1c(C)[nH]c(C(=O)NCCN2CCOCC2)c1C	activity	%	1.96
Cc1ccc2c(cnn2C(=O)CCC(=O)NC2CCCC2)c1	activity	%	8.51
Cn1c(=O)c2c(-c3cccc(Br)c3)c(C#N)c(N)nc2n(C)c1=O	activity	%	-4.07

Look up and report measured activity (Nuclear receptor subfamily 1 group D member 1 (Homo sapiens) (UniProt P20393)) for the following compound: O=S(=O)(c1cccs1)N1CCCc2nc(-c3ccc(Br)cc3)ccc21 1.38

Look up and report measured activity (Nuclear receptor subfamily 1 group D member 1 (Homo sapiens) (UniProt P20393)) for the following compound: COc1ccc(CNC(=O)COC(=O)/C=C/c2ccc(S(=O)(=O)N3CCOCC3)cc2)cc1 -0.37

* * *

Test target: Nuclear receptor subfamily 1 group D member 1 (Homo sapiens)
Measurement protocol: modulators of Rev-erb alpha DNA binding, primary screen, biochemical, FITC-DNA, fluorescence polarization, uHTS (AID 1259318);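 also: 0% = DMSO wells with 35 nM protein and 100% = DMSO wells with 750 nM protein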
Test context: Rev-erbα–FITC-DNA binding, 90 min, at 10 µM
Screen size: about 370,000 compounds; about 3,000 (0.81%) were called active.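 Rule for the calls: active = activity above about 14% (limit read from the data; passing the limit was not always enough); inactive = the rest.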 The sample holds actives, similar compounds and a random draw of the others, so the mix is not that of the screen.
Pick from Yes = active, No = inactive when you respond.

Previously resolved entries follow.
Compound	Qualitative label
COc1ccccc1N1CC(C(=O)Nc2ccc(S(=O)(=O)N3CCOCC3)cc2)CC1=O (centres undefined)	No
C=CCOC/C=C/C#CCN(CC=C)Cc1ccc(OC)cc1OC	No
CC1OC(O[C@H]2/C=C/C=C/C=C/C=C/C=C/C=C/C=C/[C@H](C)[C@@H](O)[C@@H](C)[C@H](C)OC(=O)CC(O)CC(O)CCC(O)C(O)CC(O)CC3(O)C[C@H](O)C(C(=O)O)C(C2)O3)C(O)[C@H](N)C1O (some centres undefined)	No

# fetch the recorded call for C=CCNC(=O)C12CC3CC(C1)CC(C(=O)NCC=C)(C3)C2 here No

# fetch the recorded call for C=CCNC(=O)CC12CC3CC(C1)CC(CC(=O)NCC=C)(C3)C2 here Yes

# fetch the recorded call for CC1CCCC(C)N1C(=O)COC(=O)COc1ccccc1C#N (centres undefined) here No

# fetch the recorded call for COc1cc(OC)c(N2CC(C(=O)Nc3cc(Cl)ccc3N3CCOCC3)CC2=O)cc1Cl (centres undefined) here Yes

# fetch the recorded call for CC(C)(C)c1ccc(S(=O)(=O)N2CCN(C(=O)c3ccc4c(c3)C(=O)N(Cc3ccncc3)C4=O)CC2)cc1 here No

# fetch the recorded call for O=C(O)CSCNC(=O)CC12CC3CC(CC(C3)C1)C2 here No

Reference for the values: PubChem BioAssay AID1259318
